Value source: patent US5480908A

- assay-target: β3 -adrenergic receptor (Rattus norvegicus)
- Construct: Rat epididymal fat pads are excised and placed in 0.9% saline
- Sequence (P26255 whole entry): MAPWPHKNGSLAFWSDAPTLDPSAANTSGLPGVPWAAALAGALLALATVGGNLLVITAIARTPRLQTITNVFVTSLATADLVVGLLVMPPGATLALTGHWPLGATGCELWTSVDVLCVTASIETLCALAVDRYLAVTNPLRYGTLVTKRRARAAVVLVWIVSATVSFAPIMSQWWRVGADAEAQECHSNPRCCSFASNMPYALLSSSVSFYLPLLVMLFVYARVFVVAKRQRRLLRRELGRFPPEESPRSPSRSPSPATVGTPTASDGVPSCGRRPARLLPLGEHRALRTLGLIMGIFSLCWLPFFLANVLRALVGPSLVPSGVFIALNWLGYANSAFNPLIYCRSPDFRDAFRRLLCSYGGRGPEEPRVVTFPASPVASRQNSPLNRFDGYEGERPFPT
- procedure-details: Lipolysis (β3-effect): stimulation of adipocyte lipolysis, glycerol release
- experimental-setup: rat epididymal adipocytes, 30 minutes, 37° C.; concentration giving 50% of the maximum rate of lipolysis of that compound
Counter-ions that a name gives are not always drawn.
readout-name: pEC50
Friendly reminder that pEC50 comes from taking -log10 of the concentration in mol/L.

Measured pEC50, C[C@H](Cc1ccc2c(c1)OC(C(=O)O)(C(=O)O)O2)NCC(O)COc1cccc2ccccc12 (mixture of isomers) [Example 1, disodium salt] : 6.58

====

- assay-target: β2 (Rattus norvegicus)
- Sequence (P10608 whole entry): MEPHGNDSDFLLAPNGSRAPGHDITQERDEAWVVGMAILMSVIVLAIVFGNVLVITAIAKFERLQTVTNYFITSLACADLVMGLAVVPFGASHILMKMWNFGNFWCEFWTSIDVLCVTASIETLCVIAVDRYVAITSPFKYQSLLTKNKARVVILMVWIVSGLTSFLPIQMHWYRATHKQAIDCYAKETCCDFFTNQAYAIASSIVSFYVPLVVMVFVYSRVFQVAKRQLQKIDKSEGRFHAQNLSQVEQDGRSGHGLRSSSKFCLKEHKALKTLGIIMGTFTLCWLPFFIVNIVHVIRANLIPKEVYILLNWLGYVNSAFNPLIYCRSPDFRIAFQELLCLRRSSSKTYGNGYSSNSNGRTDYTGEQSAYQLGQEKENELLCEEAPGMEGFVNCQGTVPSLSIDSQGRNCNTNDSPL
Structures can show the parent of a compound that is named as a salt.
readout-name: pIC50
In plain terms, pIC50 is the concentration in mol/L turned into minus its base-10 logarithm.

pIC50 of C[C@H](Cc1ccc2c(c1)OC(C(=O)O)(C(=O)O)O2)NCC(O)COc1cccc2ccccc12 (mixture of isomers) [Example 1, disodium salt] , assay on β2 (Rattus norvegicus), is 6.44

====

- assay-target: β1 -adrenergic receptor (Rattus norvegicus)
- Sequence (P18090 whole entry): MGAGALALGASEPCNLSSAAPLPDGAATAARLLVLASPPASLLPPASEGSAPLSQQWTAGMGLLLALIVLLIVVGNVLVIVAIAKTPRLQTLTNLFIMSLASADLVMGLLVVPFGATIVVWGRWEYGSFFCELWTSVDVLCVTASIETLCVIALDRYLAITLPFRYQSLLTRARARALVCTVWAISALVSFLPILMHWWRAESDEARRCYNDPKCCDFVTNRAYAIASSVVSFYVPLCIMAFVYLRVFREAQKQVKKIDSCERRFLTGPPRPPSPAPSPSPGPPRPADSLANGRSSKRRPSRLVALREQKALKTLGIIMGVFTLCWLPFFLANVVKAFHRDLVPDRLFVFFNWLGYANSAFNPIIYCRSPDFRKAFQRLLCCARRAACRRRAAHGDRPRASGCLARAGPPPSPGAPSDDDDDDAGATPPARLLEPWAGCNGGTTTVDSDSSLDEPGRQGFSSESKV
Structures can show the parent of a compound that is named as a salt.
readout-name: IC50 (µM)
Report only the number, with the unit µM understood.

Entry C[C@H](Cc1ccc2c(c1)OC(C(=O)O)(C(=O)O)O2)NCC(O)COc1cccc2ccccc12 (mixture of isomers) [Example 1, disodium salt] , β1 -adrenergic receptor (Rattus norvegicus) data, IC50 value: 1.52
